Collected literature values of pKi measured for Prostaglandin E2 receptor EP1 subtype (Homo sapiens, UniProt P34995).
pKi: −log10 of the molar value.

Below, each entry is followed by its recorded pKi result.
>>> print(df.to_string())
                         chemical_structure  measure_name  result_value
0  O=C(O)c1csc(-n2nc(-c3ccccc3)c3ccc(C(F)(F)F)nc32)n1           pKi        ≥ 7.00
1  Nc1c(-c2ccccc2)nn(-c2nc(C(=O)O)cs2)c1-c1ccccc1           pKi        ≥ 6.52
2  Cc1ccc(N2CCC(O)CC2)nc1C(=O)Nc1c(C)cc(C(=O)O)cc1C           pKi        < 4.76

# context switch: different molecule, same pKi
Q: Return reported pKi. Input molecule: Cc1ccc(-c2cccc(CO)c2)nc1C(=O)Nc1c(C)ccc(C(=O)O)c1C
Result: < 4.76
